Target: T1, high affinity SIRP-α D1 variant CV1-3
T1 chain: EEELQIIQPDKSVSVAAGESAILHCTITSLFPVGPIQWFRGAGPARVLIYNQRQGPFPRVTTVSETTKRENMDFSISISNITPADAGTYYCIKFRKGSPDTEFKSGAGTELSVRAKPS
Assay: SPR, Langmuir fit

binder | units-symbol | koff
S16 (scFv, V domains shown, also called clone 16) VH: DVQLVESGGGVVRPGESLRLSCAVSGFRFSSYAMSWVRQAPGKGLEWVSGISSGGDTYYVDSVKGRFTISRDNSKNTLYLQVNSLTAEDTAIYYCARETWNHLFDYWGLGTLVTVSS VL: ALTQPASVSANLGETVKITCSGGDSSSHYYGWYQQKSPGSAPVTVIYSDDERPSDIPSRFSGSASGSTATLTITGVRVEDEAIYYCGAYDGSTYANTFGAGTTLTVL | s⁻¹ | 0.0001
S59 (scFv, V domains shown, also called clone 59) VH: DVQLVESGGGVVRPGESLRLSCAVSGFRFSSHAMSWVRQAPGKGLEWVSGISSGGDTYYVDSVKGRFTISRDNSKNTLYLQVNSLTAEDTAIYYCARETWNHLFDYWGLGTLVTVSS VL: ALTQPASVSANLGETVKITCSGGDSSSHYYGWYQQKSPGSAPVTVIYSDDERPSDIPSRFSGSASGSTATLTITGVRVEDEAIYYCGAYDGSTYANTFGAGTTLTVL | s⁻¹ | 8.19e-05
S73 (scFv, V domains shown, also called clone 73) VH: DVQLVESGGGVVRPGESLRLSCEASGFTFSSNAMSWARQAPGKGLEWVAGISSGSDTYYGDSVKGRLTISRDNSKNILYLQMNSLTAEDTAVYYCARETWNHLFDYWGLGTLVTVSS VL: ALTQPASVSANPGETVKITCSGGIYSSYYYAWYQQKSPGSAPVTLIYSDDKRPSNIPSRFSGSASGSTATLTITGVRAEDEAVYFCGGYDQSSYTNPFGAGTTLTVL | s⁻¹ | 5.28e-05
S56 (scFv, V domains shown, also called clone 56) VH: DVQLVESGGGVVRPGESLRLSCAASGFTFSSYAMSWVRQAPGKGLEWLAGISAGGSDTYYIDSVKGRFTISRDNSKNSLYLQVNSLTAEDTAVYYCARETWNHLFDYWGLGTLVTVSS VL: ALTQPASVSANPGETVKITCSGGGYYSTYYGWYQQKSPGSAPVTVIHSDDKRPSDIPSRFSGSASGSAATLTITGVRVEDEAVYYCAGYDGRTYINTFGAGTTLTVL | s⁻¹ | 0.000203
S174 (scFv, V domains shown) VH: DVQLVESGGGVVRPGESLRLSCAASGFTFSDHDMSWVRQGPGEGLEWVAGISLRGGVTWYADSVKGRFTISRDNSKNTLYLRLFSLRTEDTAIYYCARESWNTFFDYWGLGTLVTVSS VL: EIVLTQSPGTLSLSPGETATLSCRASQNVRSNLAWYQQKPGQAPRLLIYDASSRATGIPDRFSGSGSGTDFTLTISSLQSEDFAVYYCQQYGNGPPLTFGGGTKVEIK | s⁻¹ | 0.00189
S163 (scFv, V domains shown) VH: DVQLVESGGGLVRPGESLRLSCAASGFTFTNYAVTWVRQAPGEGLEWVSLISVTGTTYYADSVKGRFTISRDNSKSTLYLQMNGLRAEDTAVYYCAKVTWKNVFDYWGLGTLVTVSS VL: EIVLTQSPGTLSVSPGERATFSCRASQTVGSKLAWYQQKPGQAPRLLIYDANTRATGIPARFSGSGSGTEFTLTISSLQSEDFAVYYCQQHTDWPPYTFGGGTKVEIK | s⁻¹ | 0.00174
S24 (scFv, V domains shown, also called clone 24) VH: DVQLVESGGGVVRPGESLRLSCAASGFTFSSNAMSWVRQAPGKGLEWLAGISAGGSDTYYPASVKGRFTISRDNPKNTLYLQMNTLTAEDTAVYYCARETWNHLFDYWGLGTLVTVSS VL: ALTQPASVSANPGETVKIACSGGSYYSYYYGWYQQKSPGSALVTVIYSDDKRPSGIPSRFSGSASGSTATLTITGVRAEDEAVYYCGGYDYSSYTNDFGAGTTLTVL | s⁻¹ | 0.000216
S206 (scFv, V domains shown) VH: DVQLVESGGAVVRPGETLRLSCTASGFTFSSYAMSWVRQAPGKGLEWVSGISASGSDTYYADSVKGRSTISRDNSKNTLYLRMSSLTAEDTAVYYCARETWNHLFDYWGLGTLVTLSS VL: ALTQPASVSANPGETVKITCSGGGTSSYYGWYQQKSPGSAPVTLIHSDDKRPSDIPSRFSGSASGSTATLTITGVQAEDEAVYYCGGYDYTTYVNTFGAGTTLTVL | s⁻¹ | 8.22e-05
S17 (scFv, V domains shown, also called clone 17) VH: DVQLVESGGAVVRPGESLRLSCAASGFTFSSYAMSWVRQAPGKGLEWLAGISAGGSDTYYIDSVKGRFTISRDNSENSLYLQMNSLTAEDTAVYYCARETWNHLFDYWGLGTLVTVSS VL: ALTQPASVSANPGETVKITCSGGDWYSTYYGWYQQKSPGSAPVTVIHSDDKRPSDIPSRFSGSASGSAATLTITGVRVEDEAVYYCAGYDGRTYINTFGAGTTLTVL | s⁻¹ | 0.000154
S3 (scFv, V domains shown, also called clone 3; scFv-Fc form of AB3) VH: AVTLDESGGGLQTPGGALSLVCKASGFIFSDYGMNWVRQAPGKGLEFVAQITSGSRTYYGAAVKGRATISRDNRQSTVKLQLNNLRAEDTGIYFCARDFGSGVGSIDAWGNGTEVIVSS VL: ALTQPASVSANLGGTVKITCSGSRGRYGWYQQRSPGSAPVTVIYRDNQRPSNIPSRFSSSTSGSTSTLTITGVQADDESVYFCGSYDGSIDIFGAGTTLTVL | s⁻¹ | 0.000394
